Test: Eplerenone metabolism via pooled human liver microsomes (HLM150)
Type: in vitro ADME
Settings: human, pooled human liver microsomes (HLM150, 150 donors), 6β-OH metabolite formation; HLM 150, Corning/BD
RECORDED_METRIC: Km at 10 min
Report as: number unit

Reported Km at 10 min of COC(=O)[C@@H]1CC2=CC(=O)CC[C@]2(C)[C@@]23O[C@@H]2C[C@@]2(C)[C@@H](CC[C@@]24CCC(=O)O4)[C@H]13 : 473 µM

###

Experiment: Eplerenone metabolism via pooled human liver microsomes (HLM150)
Format: in vitro ADME
Details: human, pooled human liver microsomes (HLM150, 150 donors), 21-OH metabolite formation; HLM 150, Corning/BD
RECORDED_METRIC: Km at 10 min (µM)
Answers are plain numbers, in µM.

Reported Km at 10 min of COC(=O)[C@@H]1CC2=CC(=O)CC[C@]2(C)[C@@]23O[C@@H]2C[C@@]2(C)[C@@H](CC[C@@]24CCC(=O)O4)[C@H]13 [Eplerenone] : 197
